In this section we review reported pKd values for a set of binders.
Target: T1, purified ALK protein (BLitz, Table 20) (Homo sapiens (Human), UniProt Q9UM73 19-1038, limits assumed)
T1 construct: also called purified ALK proteins
T1 sequence (Q9UM73 19-1038 limits assumed): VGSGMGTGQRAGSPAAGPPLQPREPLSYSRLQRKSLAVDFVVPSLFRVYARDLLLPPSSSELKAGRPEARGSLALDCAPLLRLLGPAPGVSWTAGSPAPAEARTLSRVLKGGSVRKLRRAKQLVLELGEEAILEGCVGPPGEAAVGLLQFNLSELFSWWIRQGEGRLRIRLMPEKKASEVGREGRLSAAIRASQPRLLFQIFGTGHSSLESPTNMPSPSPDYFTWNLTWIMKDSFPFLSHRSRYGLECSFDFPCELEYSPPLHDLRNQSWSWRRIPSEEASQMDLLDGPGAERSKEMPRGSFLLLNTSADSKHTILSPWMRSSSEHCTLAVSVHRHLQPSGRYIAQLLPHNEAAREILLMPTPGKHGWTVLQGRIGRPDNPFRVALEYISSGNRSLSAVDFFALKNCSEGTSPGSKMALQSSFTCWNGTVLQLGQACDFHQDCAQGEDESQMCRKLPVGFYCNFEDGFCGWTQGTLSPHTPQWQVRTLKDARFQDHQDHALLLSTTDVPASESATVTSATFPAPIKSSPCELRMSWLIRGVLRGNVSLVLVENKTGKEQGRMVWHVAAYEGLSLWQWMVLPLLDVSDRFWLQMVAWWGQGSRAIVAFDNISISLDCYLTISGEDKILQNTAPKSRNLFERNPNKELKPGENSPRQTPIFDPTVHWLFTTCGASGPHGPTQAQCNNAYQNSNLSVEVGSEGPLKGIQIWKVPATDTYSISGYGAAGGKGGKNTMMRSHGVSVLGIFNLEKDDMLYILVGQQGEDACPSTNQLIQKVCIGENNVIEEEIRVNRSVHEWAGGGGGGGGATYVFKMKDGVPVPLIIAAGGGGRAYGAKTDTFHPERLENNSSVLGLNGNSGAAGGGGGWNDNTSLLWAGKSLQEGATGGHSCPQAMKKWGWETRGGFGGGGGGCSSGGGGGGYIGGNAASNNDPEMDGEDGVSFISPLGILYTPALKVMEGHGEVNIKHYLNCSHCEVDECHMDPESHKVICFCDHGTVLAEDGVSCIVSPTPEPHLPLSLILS
Assay: BLI (BLitz), mAb on Protein A tip, purified ALK in solution
// pKd here means minus log10 of the molar concentration (mol/L)

BINDER | pKd
Ab362 (antibody, V domains shown, humanized) VH: EVQLVQSGAEVKKPGSSVKLSCKASGYTFSSYWMHWVKQAPGQGLEWIGYIKPSSGYTKYAQKFQGRVTLTADKSTSTAYMELSSLRSEDTAVYYCARDYYGSSSWFAYWGQGTLVTVSS VL: EIVMTQSPAFLSVTPGEKVTITCKASQNVGTNVAWYQQKPDQAPKALIYSASYRYSGVPSRFSGSGSGTDFTLTISSLEAEDAATYYCQQYNSYPYMYTFGQGTKLEIK | 6.83
Ab354 (antibody, V domains shown, humanized) VH: EVQLVQSGAEVKKPGTSVKLSCKASGYTFTSYWMHWVRQARGQRLEWIGYIKPSSGYTKYAQKFQERVTLTADKSTSTAYMELSSLRSEDTAVYYCARDYYGSSSWFAYWGQGTLVTVSS VL: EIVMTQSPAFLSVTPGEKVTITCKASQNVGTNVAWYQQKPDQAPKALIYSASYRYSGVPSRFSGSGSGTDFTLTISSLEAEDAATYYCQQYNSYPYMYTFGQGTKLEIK | 6.88
Ab357 (antibody, V domains shown, humanized) VH: EVQLVQSGAEVAKPGASVKLSCKASGYTFTSYWMHWVRQAPGQGLEWIGYIKPSSGYTKYNQKFKDKATLTADKSTSTAYMELRSLRSDDTAVYYCARDYYGSSSWFAYWGQGTLVTVSS VL: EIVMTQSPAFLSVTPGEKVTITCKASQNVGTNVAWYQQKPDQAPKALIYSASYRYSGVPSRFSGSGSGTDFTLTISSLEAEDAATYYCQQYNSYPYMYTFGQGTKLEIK | 6.83
Ab435 (antibody, V domains shown, humanized) VH: QVQLVQSGAEVAKPGTSVKLSCKASGYTFTSYWMHWVKQAPGQGLEWIGYIKPSSGYTKYNQKFKDKVTLTADKSTSTAYMELSSLRSEDTAVYYCARDYYGSSSWFAYWGQGTLVTVSS VL: EIVMTQSQATMSTSVGERATLSCKASQNVGTNVAWYQQKPGQSPKALIYGASTRATGVPARFSGSGSGTDFTLTISSVEPEDFAVYYCQQYNSYPYMYTFGQGTKLEIK | 6.50

Query: Consider the binder Ab431 (antibody, V domains shown, humanized) VH: QVQLVQSGAEVAKPGSSVKLSCKASGYTFTSYWMHWVKQAPGQGLEWIGYIKPSSGYTKYNQKFKDKATLTADKSTSTAYMELSSLRSEDTAVYYCARDYYGSSSWFAYWGQGTLVTVSS VL: EIVMTQSPATLSTSPGERATLSCRASQSVSSNLAWYQQKPGQAPRALIYSASYRYSGVPARFSGSGSGTDFTLTISSVEPEDFAVYYCQQYNSYPYMYTFGQGTKLEIK and give its measured pKd.
Reply: 6.60
